- method: yeast display, Sf9 membrane polyspecificity reagent, FACS + sequencing; frameworks hold sequencing errors
measure.name: polyreactivity (PSR sort gate)

seq	polyreactivity (PSR sort gate)
QVQLVESGGGLVKAGGSLRLSCAASGFNFSSYALGWYRPAPGKERELVAAISYSGGSTYYADSVKGRFTISRDNAKNTVYLQMNSLKPEDTAVYYCNKLRGYGLRYIVSLDYWGQGTQVSVSS	high polyreactivity
QVQLVESGGGLVQAGGSLRLSCAASGFIFKPNALGWYRQAPGKERELVAAITWGGDNTYYADSVKGRFTISRDNAKNTVYLQMNSLKPEDSAVYYCAAEWKFHSDASYIYDYWGQGTQVTVSS	high polyreactivity
QVKLVESVGGLVQAGGRLRLSCAASGSILYFNAMGWYRQAPGKERELVAAISKSGGRTYYADSVKGRFTISRDNAKNTVYLQMNCLKPEDTAVYYCAKDNYWGQGTQVTVSS	high polyreactivity
QVQLVESGGGLVQAGGSLRLSCAASGRTFRYYAMGWYRQAPGKERELVAAITSSGGSTYYADSVKGRFTISRDNAKNTVYLQMNSLKPEDTAVYYCNRTPYHAPWQDALYRYGYWGQGTQVTVSS	high polyreactivity
QVQLVETGGGLVQAGGSLRLSCAASGRTFYYNGRGWYRQAPGKERELVAAITSGGTTSYADSVKGRFTISRDNAKNTVYLQMNSLKPEETAVYYCNADYWAVNYDYWGQGTQVTVSS	low polyreactivity
QVKLVESGAGVVQAGGSLRLSCAACGRIFLKYAMGWYRQAPGKERELVAAITSGGGRTSYADSVKGRFTISRDNAKNTVYLQMNSLKPEDTAVYYCNAPAYWRYILRGSAYDYWGQGTQVTVSS	high polyreactivity
QDQLVESGGGLVQAGGSLRLSCAASGRTFAYKVMGWYRQAPGNERELVAANSRGGGRTYYADSVKGRFTISRDNAKNTVYLQMNSLKPEDTAVYYCNAASSGLSGRLTSIINDYWGQGTQVTVSS	high polyreactivity
QVQLVESGGGLVQAGGSLRLSCAASGRTFPPNSMAWYRQAPGKERELVAGITRGGNTYYADSVKGRFTISRDNAKNTVYLQMNSLKPEDTAVYYCAAERRYYSWYWYRVNYCGQGTQVTVSS	high polyreactivity

In: Suppose we examine the sequence `QVQLVESGGGLVQAGGSLRLSCAASGSTFGGYAMGWYRLAPGKERELVAAISSSGTSTYYADSVKGRFTISRDNAKNTVYLQMNSLKPEDTAVYYCATDFSFFSRFDYWGQGTQVTVSS` ; what polyreactivity (PSR sort gate) value has been reported?
Out: low polyreactivity

In: Name the reported polyreactivity (PSR sort gate) value associated with the sequence `QVQLVESGGGLVQAGGSLRLSCAASGSIFTRYVMGWYRQARGKERELVASISGRGSSTYYADSVKGRFTISRDNAKNTVYLQMNSLKPEDTAVYYCAAEIVVFYSEGQRNTFYYWGQGTQVTVSS`
Out: high polyreactivity

In: Name the recorded polyreactivity (PSR sort gate) for `QLQLVESGGGLVQAGGSLRVSCAASGSIFLRYAMGWYRQAAGKERELVAAITSSGGSTYYADSVKGRFTISRDNAKNTVYLQMNSLKPEDTAVYYCNRYSYLFPYYWKYDYWGQGTQVTVSS` .
Out: high polyreactivity

* * *

- method: yeast display, Sf9 membrane polyspecificity reagent, FACS + sequencing; frameworks hold sequencing errors
measure.name: polyreactivity (PSR sort gate)

Study these solved cases before continuing.
seq	polyreactivity (PSR sort gate)
QVKLVESGGGLVQAGGSLRLSCAASGRIFGYYDMGLYRQAPGKDRELVAAISWNGGSTSYADSVKGRFTISRDNAKNTVYLQMNSLKPEDTAVYYCAAETQYDGYVGSFYYWGQGTQVTVSS	low polyreactivity
QVQLQESGGGLVQAGGILRLSCAACGNIFPSAVMGWYRQALGKEREFVATINSGSNTYYADSVKGRFTISRDNAKNTVYLQMNSLKLEDTAVYYCAAYFKLQAWHTYWGQGTQVTVSS	low polyreactivity
QVQLVESGGGLVQAGGSLRLSCAASGFIFYYNGMGRYRQAPGKERELVAAISGGVGSTYYADSVKGRFTISRDNAKNTVYLQMNSLKPEDTAVYYCNAKLYKPPFDYWGQGTQVTLSS	low polyreactivity
QVQLVESGGGLVQAGGSLRLSCAASGIIFSYYVMGWYRQAPGKERELVAAISRSGAITYYADSVKGRFTISRDNAKNTVYLQMNSLKPEDTSVYYCAAELVPYSYHLRLDYWGQGTQVTVSS	high polyreactivity

Consider now this further sequence.
In: Sample `QVQLVESGGGLVQAGGSLRLSCAASGRTFRVYAMGWYRQAPGKERELVAAIRRSGGSTYYADSVKGRFTISRDNAKNTVYLQMNSLKPEDTAVYYCAAYFYYWGSTFVRYEYWGLGTQVTVSS` — what was its polyreactivity (PSR sort gate)?
Out: high polyreactivity
